- Assay System: glucocerebrosidase (Homo sapiens)
- Sequence (P04062 40-536): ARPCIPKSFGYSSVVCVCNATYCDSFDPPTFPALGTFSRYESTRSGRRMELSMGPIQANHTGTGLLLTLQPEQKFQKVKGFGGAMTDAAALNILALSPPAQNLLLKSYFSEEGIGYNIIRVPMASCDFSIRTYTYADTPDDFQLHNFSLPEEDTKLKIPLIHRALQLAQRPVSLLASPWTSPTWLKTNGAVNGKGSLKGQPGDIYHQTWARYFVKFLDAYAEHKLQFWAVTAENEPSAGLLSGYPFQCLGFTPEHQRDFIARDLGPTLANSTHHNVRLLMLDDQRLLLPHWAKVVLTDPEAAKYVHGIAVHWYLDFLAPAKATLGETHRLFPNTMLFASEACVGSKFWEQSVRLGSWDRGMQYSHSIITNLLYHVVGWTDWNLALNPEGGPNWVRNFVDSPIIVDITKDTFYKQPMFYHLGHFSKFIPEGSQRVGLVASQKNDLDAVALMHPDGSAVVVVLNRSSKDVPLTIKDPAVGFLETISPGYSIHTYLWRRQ
- Test Method Notes: Glucocerebrosidase activity assay with blue substrate (4MU-Glc)
- Type: biochemical
- Condition Details: Table 1; 7.5 nM enzyme, 1.5 mM 4MU-Glc, 30 min at 37° C.
Experimental Readout: Emax (%)

>>> assay_result("Cc1cccc(OCCN(C)c2nc(-c3cccnc3)nc3ccccc23)c1")
500
>>> assay_result("CN(CC1Cc2ccccc2O1)c1nc(-c2cccnc2)nc2ccccc12 (stereo not drawn)")
501
>>> assay_result("CN(CCOc1ccccc1)c1nc(-c2ccc(O)nc2)nc2ccccc12")
200
